Source: patent US20150182581A1

MEASURED_TARGET: ASK-1 + Nef (Nef and ASK1g co-transfected in ATCC CRL-1573 cells) (HIV-1; human, UniProt Q99683 1-1050)
Sequence (Q99683 1-1050): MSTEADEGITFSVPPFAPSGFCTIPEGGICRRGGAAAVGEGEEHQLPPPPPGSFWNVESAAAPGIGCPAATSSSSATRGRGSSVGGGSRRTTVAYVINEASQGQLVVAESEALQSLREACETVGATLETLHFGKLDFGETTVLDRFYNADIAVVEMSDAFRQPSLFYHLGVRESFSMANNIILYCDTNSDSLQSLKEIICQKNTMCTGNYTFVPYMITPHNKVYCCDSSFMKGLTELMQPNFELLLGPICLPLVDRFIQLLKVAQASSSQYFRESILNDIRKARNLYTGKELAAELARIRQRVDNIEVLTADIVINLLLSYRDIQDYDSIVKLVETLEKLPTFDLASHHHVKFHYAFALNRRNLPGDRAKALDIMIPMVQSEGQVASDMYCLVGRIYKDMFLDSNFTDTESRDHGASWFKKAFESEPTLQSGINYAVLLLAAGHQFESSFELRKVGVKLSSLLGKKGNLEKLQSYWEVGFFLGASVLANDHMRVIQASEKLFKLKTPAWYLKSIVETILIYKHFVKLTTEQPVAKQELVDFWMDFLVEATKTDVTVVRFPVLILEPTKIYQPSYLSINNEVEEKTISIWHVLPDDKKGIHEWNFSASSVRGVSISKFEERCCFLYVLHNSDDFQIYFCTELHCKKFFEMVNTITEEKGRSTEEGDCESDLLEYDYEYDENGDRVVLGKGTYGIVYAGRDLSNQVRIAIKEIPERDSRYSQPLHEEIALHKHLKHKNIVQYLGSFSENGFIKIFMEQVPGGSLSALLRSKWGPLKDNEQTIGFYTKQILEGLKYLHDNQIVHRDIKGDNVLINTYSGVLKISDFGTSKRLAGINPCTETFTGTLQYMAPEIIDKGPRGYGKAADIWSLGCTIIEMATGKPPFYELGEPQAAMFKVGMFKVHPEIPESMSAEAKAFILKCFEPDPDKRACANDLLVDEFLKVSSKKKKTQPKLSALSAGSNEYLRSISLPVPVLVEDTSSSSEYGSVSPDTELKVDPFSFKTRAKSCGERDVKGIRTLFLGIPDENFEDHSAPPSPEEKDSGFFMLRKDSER
PROTOCOL_DESCRIPTION: cell-based or functional assay
ASSAY_METRIC: % of Annexin V cells means apoptotic cells (%)
Give just the number in %; leave the unit off.

Completed entries (count: 3):
{"BINDER": "DEVGEANN [Peptide-3]", "OBSERVED_MEASUREMENT": 40.4}
{"BINDER": "GENNCLLH [Peptide-2]", "OBSERVED_MEASUREMENT": 25}
{"BINDER": "PVRPQVPLRP [Peptide-5]", "OBSERVED_MEASUREMENT": 22.4}

Give the measured % of Annexin V cells means apoptotic cells of LHGMEDPE [Peptide-4] .
23

Give the measured % of Annexin V cells means apoptotic cells of TPGPGVRYP [Peptide-1] .
22.4
